- System: T1, Source 1 VEGF-D, mature dimeric recombinant human VEGF-D (CSIRO) (human, UniProt O43915 89-205)
- T1 construct: Whole entry named; also called Source 1 VEGF-D dimer; VEGF-D dimer
- T1 sequence: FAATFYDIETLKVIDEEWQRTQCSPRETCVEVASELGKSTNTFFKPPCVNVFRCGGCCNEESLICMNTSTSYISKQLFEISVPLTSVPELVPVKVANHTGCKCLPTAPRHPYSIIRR
- Test method notes: SPR Protocol B: VEGF-D dimer amine-coupled, IgG as analyte
Below, each entry is listed alongside its reported kon.
Measured property: kon (M⁻¹ s⁻¹)

INSERT INTO measurements (binder, unit_annotation, value_measured) VALUES
  ('humanized IgG antibody derived from clone HW78 (antibody, V domains shown, IgG) VH: QVQLVQSGAEVKQPGASVKVSCKARGYTFTGYNMYWVRQAPGQGLEWMGYIDPYNGDTTYNQKFKGRVTMTTDTSTGTAYMKLRSLRSDDTAVYYCARTSYYGGMDYWGRGTLVTVAS VL: DIVMTQTPLSSPVTLGQPASISCRSSQSLVHSNGNTYLHWLQQRPGQPPRLLIYKVSNRFSGVPDRFSGSGAGTDFTLKISRVEAEDVGVYYCSQSTHVPRTFGQGTKLEIKR', 'M⁻¹ s⁻¹', '5.4e+06'),
  ('humanized IgG antibody derived from clone HU75 (antibody, V domains shown, IgG) VH: QVQLVQSGAEVKQPGASVKVSCKASGYTFTGYNMYWVRQAPGQGLEWMGYIDPYNGDTTYNQKFKGRVTMTTDTSTSTAYMKLRSLRSDDTAVYYCARTSYYGGMDYWGRGTLVTVAS VL: DIVMTQTPLSGPVTLGQPASISCRSSQSLVHSNGNTYLHWLQQRPGQPPRLLIYKVSNRFSGVPDRFSGSGAGTDFTLKISRVEAEDVGVYYCSQSTHVPRTFGRGTKLEIKR', 'M⁻¹ s⁻¹', '4.8e+06'),
  ('humanized IgG antibody derived from clone HH41 (antibody, V domains shown, IgG; also called HH41#1; HH41#2) VH: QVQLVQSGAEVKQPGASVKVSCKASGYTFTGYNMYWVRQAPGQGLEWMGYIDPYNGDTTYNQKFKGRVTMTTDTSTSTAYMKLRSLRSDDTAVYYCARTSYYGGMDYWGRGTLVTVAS VL: DIVMTQTPLSSPVTLGQPASISCRSSQSLVHGNGNTYLHWLQQRPGQPPRLLIYKVSNRFSGVPDRFSGSGAGTDFTLKISRVEAEDVGVYYCSQSTHVPRTFGQGTKLEIKR', 'M⁻¹ s⁻¹', '4.7e+06'),
  ('humanized IgG antibody derived from clone DI26 (antibody, V domains shown, IgG) VH: QVQLVQSGAKVKQPGASVKASCKASGYTFTGYNMYWVRQAPGQGLEWMGYIDPYSGDTTYNQKFKGRVTMTTDTSTSTAYMELRSLRSDDTAVYYCARTSYYGGMDYWGRGTLVTVAS VL: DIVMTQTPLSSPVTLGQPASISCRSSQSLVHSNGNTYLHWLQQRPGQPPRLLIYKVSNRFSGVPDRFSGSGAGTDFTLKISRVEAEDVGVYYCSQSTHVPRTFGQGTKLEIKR', 'M⁻¹ s⁻¹', '1.3e+06'),
  ('humanized IgG antibody derived from clone HH69 (antibody, V domains shown, IgG) VH: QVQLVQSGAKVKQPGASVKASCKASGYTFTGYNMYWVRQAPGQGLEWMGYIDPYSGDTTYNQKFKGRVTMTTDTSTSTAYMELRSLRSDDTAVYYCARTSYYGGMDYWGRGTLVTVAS VL: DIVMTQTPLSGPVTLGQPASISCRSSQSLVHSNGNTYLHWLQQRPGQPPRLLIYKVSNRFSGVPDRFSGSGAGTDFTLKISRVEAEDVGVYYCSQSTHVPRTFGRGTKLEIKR', 'M⁻¹ s⁻¹', '3e+06'),
  ('Ig-1A, humanized IgG reformatted from scFv 1A (antibody, V domains shown, IgG made in mammalian cells; also called humanized Ig-1A) VH: QVQLVQSGAEVKQPGASVKVSCKASGYTFTGYNMYWVRQAPGQGLEWMGYIDPYNGDTTYNQKFKGRVTMTTDTSTSTAYMELRSLRSDDTAVYYCARTSYYGGMDYWGRGTLVTVAS VL: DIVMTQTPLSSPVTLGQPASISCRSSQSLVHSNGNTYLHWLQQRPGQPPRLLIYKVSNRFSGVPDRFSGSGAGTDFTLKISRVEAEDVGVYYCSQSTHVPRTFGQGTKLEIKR', 'M⁻¹ s⁻¹', 720000);
